# Tested on: B. cenocepacia LMG 16656
# Test Settings: read-out: IC50 B. cenocepacia LMG 16656; repeat 1; starting at 32 μM; 10^5 CFU/mL, 48 h, 37°C, resazurin
Ends that are not written are not given here.
Measured IC50, listed per entry for reference.

Req: GET /values?readout=IC50&item= SWWKKVFKPVEKLGQRVRDATIQGIGIAQQGANVLATVRGGPPQ-NH2 [Hill-Cec1]
Resp: > 32 µM

Req: Field entry: RWYKKIFKPVEKAVQRVRDGTLQALGVAQQAANVYATAQGAQQQRHA-NH2 [Hill-Cec10]
Resp: > 32 µM

---

# System: E. coli ATCC 8739
# Type: cell-based, Escherichia coli
# Test Settings: repeat 2, 32-0.016 μM; determined visually, 16 h
Ends that are not written are not given here.
Outcome Measure: MIC E. coli ATCC 8739

The following substances have reported results that may help.
>>> endpoint_value("VTCDLLEPFLGPAPCMIHCIVRFRKRTGYCNSQNVCVCR [Hill-Def1, Defensin without disulfide bridges, C-terminal amidation]")
"> 32.00 µM"
>>> endpoint_value("RSLWKKLFKPVERAGQRIRDATIKGIVIAQQGANVLATIRGGPAIPPGQ-NH2 [Hill-Cec12]")
"2.00 µM"
>>> endpoint_value("GWWKRVFKPVEKFGQRVRDAGIQGIEIAQQGANVLATARGGPPQQ-NH2 [Hill-Cec8]")
"2.00 µM"
>>> endpoint_value("TTCDLISGTKIENIACAAHCIAMGHKGGYCNSNLICICR [Hill-Def7, Defensin without disulfide bridges]")
"> 32.00 µM"
>>> endpoint_value("GWWKRVFKPVEKFGQRVRDAGVQGIAIAQQGANVLATARGGPPQQ-NH2 [Hill-Cec2]")
"2.00 µM"

Let us move to another entry and its MIC E. coli ATCC 8739.
Req: Which measured MIC E. coli ATCC 8739 value corresponds to DQSKEPFKPMERPYQRVRDAKIQGITIAQNGPNVLAITRGGLEQ [Hill-Cec6, Cecropin, C-terminal amidation] ?
Resp: > 64.00 µM
